Entries and their Emax
- test target: hGhrR (COS7 cells stably expressing hGhrR-eYFP) (Homo sapiens, UniProt Q92847)
- Sequence (Q92847 whole entry): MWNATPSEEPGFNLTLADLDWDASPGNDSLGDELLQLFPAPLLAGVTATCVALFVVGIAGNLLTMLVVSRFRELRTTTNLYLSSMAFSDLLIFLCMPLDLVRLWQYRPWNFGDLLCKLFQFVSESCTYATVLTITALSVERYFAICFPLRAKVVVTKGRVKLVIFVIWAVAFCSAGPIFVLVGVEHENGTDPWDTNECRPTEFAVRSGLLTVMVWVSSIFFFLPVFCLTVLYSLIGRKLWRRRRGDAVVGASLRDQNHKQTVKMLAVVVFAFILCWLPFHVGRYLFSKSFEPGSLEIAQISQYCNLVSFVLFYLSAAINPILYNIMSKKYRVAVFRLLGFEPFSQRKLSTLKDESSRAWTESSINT
- experiment description: cell-based
- assay conditions: COS-7, mean ± SEM; refers to ghrelin Emax as 100%, 0% = constitutive receptor activity
outcome measure: Emax

compound="Cc1nc2ccc(Oc3ccc(Br)cc3F)nc2c(=O)n1C[C@H]1CCCN(C(C)CF)C1 (stereo partly drawn) [(S)-13]" test_target="hGhrR (COS7 cells stably expressing hGhrR-eYFP) (Homo sapiens, UniProt Q92847)" reported_value=~60%
compound="Cc1nc2ccc(Oc3ccc(Br)cc3F)nc2c(=O)n1C[C@@H]1CCCN(C(C)C)C1 [(R)-9]" test_target="hGhrR (COS7 cells stably expressing hGhrR-eYFP) (Homo sapiens, UniProt Q92847)" reported_value=~60%
compound="CC(C)N1CCC[C@H](Cn2cnc3ccc(Oc4ccc(Br)cc4F)nc3c2=O)C1 [(S)-16]" test_target="hGhrR (COS7 cells stably expressing hGhrR-eYFP) (Homo sapiens, UniProt Q92847)" reported_value=40%
compound="Cc1nc2ccc(Oc3ccc(Br)cc3F)nc2c(=O)n1C[C@H]1CCCN(C(C)C)C1 [(S)-9]" test_target="hGhrR (COS7 cells stably expressing hGhrR-eYFP) (Homo sapiens, UniProt Q92847)" reported_value=~60%
compound="Cc1nc2ccc(Oc3ccc(Br)cc3F)nc2c(=O)n1C[C@H]1CCCN(CCCF)C1 [(S)-11]" test_target="hGhrR (COS7 cells stably expressing hGhrR-eYFP) (Homo sapiens, UniProt Q92847)" reported_value=~60%
compound="Cc1nc2ccc(Oc3ccc(Br)cc3)nc2c(=O)n1C[C@H]1CCCN(C(C)C)C1 [(S)-14]" test_target="hGhrR (COS7 cells stably expressing hGhrR-eYFP) (Homo sapiens, UniProt Q92847)" reported_value=42%
compound="Cc1nc2ccc(Oc3ccc(Br)cc3F)nc2c(=O)n1C[C@H]1CCCN(CCF)C1 [(S)-10]" test_target="hGhrR (COS7 cells stably expressing hGhrR-eYFP) (Homo sapiens, UniProt Q92847)" reported_value=~60%
